Experiment: qHTS Assay for Lipid Storage Modulators: S3 Assay against Probe and Analogs
Conditions: Drosophila S3 cells, BODIPY lipid droplet fluorescence, 18-24 h, oleic acid added to induce droplets; series mostly up to 46.1 µM
Records with an inconclusive call do not appear. Activity calls are given as the source filed them. Calls follow the shape of the dose curve; as a rule, active = well fitted inhibition curve with a large enough effect; inconclusive = small, poorly fitted or top-dose-only effect; inactive = no such curve, though single readings can be large or run the other way.
Classes used: active, inactive

1) CCOc1ccc(CCNC(=O)c2ccc(C(=O)c3ccccc3)cc2)cc1OCC	inactive
2) CCOc1ccc(CCNC(=O)c2cc3ccccc3n2Cc2ccccn2)cc1OCC	active
3) CCOc1ccc(CCNC(=O)c2cc3cnccc3n2Cc2cccc(C)n2)cc1OCC	inactive
4) CCOc1ccc(CCNC(=O)c2ccc(Oc3ccccc3)cc2)cc1OCC	inactive
5) CCOc1ccc(CCNC(=O)c2cc3ccncc3n2Cc2cccc(C)n2)cc1OCC	inactive
6) CCOc1ccc(CCNC(=O)c2cc3ccccc3n2Cc2cccc(C)c2)cc1OCC	active

Hello, the source for this data is PubChem BioAssay AID652175, in case you need it.
